Settings: LC-MS determination in the acidic range, pH 2.7, 0.1% aqueous formic acid and acetonitrile
quantityName: Log P [a]
Numbers only.

Some molecules with known Log P [a] results, for comparison:
| molecule | Log P [a] |
| --- | --- |
| O=C(Cn1nc(C(F)F)cc1C(F)F)N1CCC(c2nc(C3=NOC(COc4c(F)cccc4Cl)C3)cs2)CC1 (centres unmarked) [I-74] | 3.44 |
| O=C(Cn1nc(C(F)F)cc1C(F)F)N1CCC(c2nc(C3=NOC(COc4c(F)cccc4Br)C3)cs2)CC1 (centres unmarked) [I-75] | 3.67 |
| O=C(Cn1nc(C(F)F)cc1C(F)F)N1CCC(c2nc(C3=NOC(COc4ccccc4F)C3)cs2)CC1 (centres unmarked) [I-3] | 3.19 |
| Cc1ccc(C)c(NC(=O)N2CCC(c3nc(C4=NOC(COc5ccccc5)C4)cs3)CC2)c1 (centres unmarked) [I-41] | 3.36 |
| CC(O)(c1c(F)cccc1F)C1CC(c2csc(C3CCN(C(=O)Cn4nc(C(F)F)cc4C(F)F)CC3)n2)=NO1 (centres unmarked) [I-47] | 3.03 |

# return recorded Log P [a] for entry Cc1cc(C(F)F)nn1CC(=O)N1CCC(c2nc(C3=NOC(COc4c(F)cccc4F)C3)cs2)CC1 (centres unmarked) [I-48] 3.01

----------
System: Plasmopara viticola
Test: Plasmopara test (grapevine) / protective
Format: in vivo
Details: young grapevine plants sprayed, active ingredient concentration 10 ppm; evaluation 6 days after inoculation; 100% = no infection
Hi there, I'd appreciate the recorded % eff. for every entry that follows.
Numbers only, in %.

| compound | quantityName | readoutUnits | numericResult |
| --- | --- | --- | --- |
| CC(C)(c1ccccc1)C1CC(c2csc(C3CCN(C(=O)Cn4nc(C(F)F)cc4C(F)F)CC3)n2)=NO1 (centres unmarked) [I-4] | % eff. | % | 97 |
| O=C(Cn1nc(C(F)F)cc1C(F)F)N1CCC(c2nc(C3=NOC(C(F)(F)c4cccs4)C3)cs2)CC1 (centres unmarked) [I-57] | % eff. | % | 100 |
| Cc1ccc(C)c(NC(=O)N2CCC(c3nc(C4=NOC(COc5c(Cl)cccc5Cl)C4)cs3)CC2)c1 (centres unmarked) [I-56] | % eff. | % | 100 |
| Cc1cc(C(F)(F)F)nn1CC(=O)N1CCC(c2nc(C3=NOC(COc4c(F)cccc4Cl)C3)cs2)CC1 (centres unmarked) [I-46] | % eff. | % | 98 |

Your task in this section: give % eff. for each listed record.
1. Cc1cc(C(F)F)nn1CC(=O)N1CCC(c2nc(C3=NOC(COc4c(F)cccc4F)C3)cs2)CC1 (centres unmarked) [I-48]
2. COc1ccccc1OCC1CC(c2csc(C3CCN(C(=O)Cn4nc(C(F)F)cc4C(F)F)CC3)n2)=NO1 (centres unmarked) [I-26]
3. Fc1cccc(F)c1C(F)C1CC(c2csc(C3CCN(C(=S)Cn4nc(C(F)F)cc4C(F)F)CC3)n2)=NO1 (centres unmarked) [I-18]
4. O=C(Cn1nc(C(F)F)cc1C(F)F)N1CCC(c2nc(C3=NOC(C(O)c4ccccc4)C3)cs2)CC1 (centres unmarked) [I-8]

96
96
100
93

----------
Provide the recorded Log P [a] for the entries that follow.
Conditions: LC-MS determination in the acidic range, pH 2.7, 0.1% aqueous formic acid and acetonitrile

The examples below pair each entry with its known result.
| compound | Log P [a] |
| --- | --- |
| Cc1cc(C(F)(F)F)nn1CC(=O)N1CCC(c2nc(C3=NOC(C(F)c4ccccc4)C3)cs2)CC1 (stereo not drawn) | 3.3^[a] |
| Cc1cc(C(F)(F)F)nn1CC(=O)N1CCC(c2nc(C3=NOC(C(F)(F)c4ccccc4)C3)cs2)CC1 (stereo not drawn) | 3.55^[a] |

Please examine the following record next.
Read off the recorded Log P [a] for O=C(Cn1nc(C(F)F)cc1C(F)F)N1CCC(c2nc(C3=NOC(C(F)c4c(F)cccc4F)C3)cs2)CC1 (stereo not drawn) 3.36^[a]
